- ASSAY_NAME: gradient 5% acetonitrile 3 min, to 50% in 2 min, to 85% in 15 min, held 3 min, 100 µL/min
- CONDITION_NOTES: column: Zorbax Extend-C18 2.1 x 50 mm; eluents: water / acetonitrile, 0.1% formic acid
ENDPOINT_LABEL: RP-LC retention time (s)

MOLECULE | ENDPOINT_LABEL | DATA_VALUE
Cn1nccc1-c1cccc(-c2noc(-c3ccnc(Cl)c3)n2)c1 | RP-LC retention time | 1050
CCN(CC)C(=O)Cn1cc(C(=O)C(=O)N(C)Cc2ccccc2)c2ccccc21 | RP-LC retention time | 890
CCC(Oc1ccc(=O)n(-c2ccc(F)cc2)n1)C(=O)NCCCOC (stereo not given) | RP-LC retention time | 677
CC(C)N1C(=O)c2cccnc2Sc2cc(NC(=O)Cc3ccc(F)cc3)ccc21 | RP-LC retention time | 867
O=C(NC(c1ccccc1)c1nnc(N2CCCCC2)o1)c1ccc2c(c1)OCO2 (stereo not given) | RP-LC retention time | 847
